# System: UO-31 renal
# procedure_summary: NCI tumour cell line growth inhibition, 48 h
Task for the reader: assign each of the following molecules its reported TGI.

The reported value for CCCNC(=O)CCC(C)C1CCC2C3C(C[C@H](OC(C)=O)[C@]12C)[C@@]1(C)CCC2(C[C@H]1C[C@H]3OC(C)=O)OOC1(CC[C@]3(C)C4C[C@H](OC(C)=O)[C@]5(C)C(C(C)CCC(=O)NCCC)CCC5C4[C@H](OC(C)=O)C[C@@H]3C1)OO2 (stereo partly drawn) in terms of TGI is 3.31 µM

The reported value for CCOC(=O)C1=NN(c2ccc(C)cc2)C2=CC(C)=NN(C)C(=S)N21 in terms of TGI is > 100 µM

The reported value for CC[C@]1(Cc2ccc(OC)c(OC)c2)C=[N+]([O-])O[C@H](OC2CCCC2(c2ccccc2)c2ccccc2)[C@@H]1OC(C)=O (stereo partly drawn) in terms of TGI is 12.6 µM

====

Task for the reader: assign each of the following molecules its reported TGI.
# Test system: OVCAR-5 ovarian
# procedure_summary: NCI tumour cell line growth inhibition, 48 h
// note: answer is a bare numeric in µM

The reported value for CCN(Cc1ccc(F)cc1)c1ccc(CO)c(F)c1 in terms of TGI is 4.13

The reported value for COC1=CC(c2ccc[nH]2)=N/C1=C\c1[nH]c(C)c(C(=O)CCCCC(=O)NC(C)(C)C)c1C in terms of TGI is 8.73

The reported value for O=C(Nc1cccc(-n2cc(-c3ccncc3)c(-c3cc(O)cc(Cl)c3)n2)c1)Nc1ccc(Cl)c(C(F)(F)F)c1 in terms of TGI is 13.1

The reported value for CC1OC(OC2C[C@](O)(C(=O)CF)Cc3c(O)c4c(c(O)c32)C(=O)c2ccccc2C4=O)CC(N)C1O (stereo not given in full) in terms of TGI is 0.541

The reported value for Cc1ccc(N(C(=O)Nc2ccccc2)C2=NCC(C)S2)cc1C (stereo not given) in terms of TGI is 73.5

====

# System: CCRF-CEM leukemia
# procedure_summary: NCI tumour cell line growth inhibition, 48 h; in the data active = GI50 below about 0.43 µM; inactive = the rest
Your reply should match one of these outcome classes. active, inactive

Asked: Dear all, I need the recorded test outcome for O=c1cc(-c2ccccc2F)[nH]c2ccc(N3CCCC3)cc12 , thank you.
Given back: active

Asked: Dear all, I need the recorded test outcome for C=C1/C(=C\C=C2/CCC[C@]3(C)[C@@H]([C@H](C)CCCC(C)(C)O)CC[C@@H]23)C[C@@H](OC(=O)CBr)C[C@@H]1O , thank you.
Given back: active

Asked: Dear all, I need the recorded test outcome for O=C1c2cccc(NCCN=Cc3cc([N+](=O)[O-])ccc3O)c2C(=O)c2c(NCCN=Cc3cc([N+](=O)[O-])ccc3O)cccc21 , thank you.
Given back: inactive

Asked: Dear all, I need the recorded test outcome for COc1cccc(-n2nc(C)c3c(N/N=C(\C)c4ccncc4)ncnc32)c1 , thank you.
Given back: inactive

Asked: Dear all, I need the recorded test outcome for C=CCN(CC=C)C(=O)[C@H](CC)[C@@H]1CC[C@@H](C)[C@@H]([C@H](C)[C@@H](O)[C@@H](C)C(=O)[C@H](CC)C2O[C@]3(C=CC(=O)[C@]4(CC[C@@](C)([C@H]5CC[C@](O)(CC)[C@H](C)O5)O4)O3)[C@H](C)C[C@@H]2C)O1 (stereo not given in full) , thank you.
Given back: inactive

Numbers sourced from PubChem BioAssay (NCI).
